Value source: the NIST ThermoML archive (doi:10.1016/j.jct.2014.12.027)

test: activity coefficient (dimensionless); of the first substance listed, at infinite dilution; xn = mol fraction of the nth substance listed; conditions: 338.15 K; 101 kPa; Liquid; Chromatography; x1 = 0
Measured activity coefficient determines class: lower range: < 1; middle range: ≥ 1 and < 10; upper range: ≥ 10

Answered cases to consult:
CC1CCCCC1 [methylcyclohexane] + CCCC[n+]1ccc(C)cc1.N#CC(=C=[N-])C#N; upper range
CCc1ccccc1 [ethylbenzene] + CCCC[n+]1ccc(C)cc1.N#CC(=C=[N-])C#N; middle range
CCCCCC [hexane] + CCCC[n+]1ccc(C)cc1.N#CC(=C=[N-])C#N; upper range
CCCCCCCCC [nonane] + CCCC[n+]1ccc(C)cc1.N#CC(=C=[N-])C#N; upper range

Class (by measured activity coefficient) for CCCCCCC [heptane] + CCCC[n+]1ccc(C)cc1.N#CC(=C=[N-])C#N
upper range

Hi, small favor: classify CCO [ethanol] + CCCC[n+]1ccc(C)cc1.N#CC(=C=[N-])C#N by its activity coefficient when you get a moment.
lower range

State the class of the compound shown: C#CCCCC [1-hexyne] + CCCC[n+]1ccc(C)cc1.N#CC(=C=[N-])C#N
middle range

Bin this entry: C#CCCCCC [1-heptyne] + CCCC[n+]1ccc(C)cc1.N#CC(=C=[N-])C#N
middle range

---

test: activity coefficient (dimensionless); of the first substance listed, at infinite dilution; xn = mol fraction of the nth substance listed; conditions: 348.15 K; 101 kPa; Liquid; Chromatography; x1 = 0
measurement.kind: activity coefficient

CCCO [propan-1-ol] + CCCC[n+]1ccc(C)cc1.N#CC(=C=[N-])C#N; 0.936

According to the records, this compound C1CCOC1 [tetrahydrofuran] + CCCC[n+]1ccc(C)cc1.N#CC(=C=[N-])C#N displays activity coefficient of 0.856

The value of activity coefficient measured for the compound CCO [ethanol] + CCCC[n+]1ccc(C)cc1.N#CC(=C=[N-])C#N turned out to be 0.812

activity coefficient reported for this compound CC(C)=O [acetone] + CCCC[n+]1ccc(C)cc1.N#CC(=C=[N-])C#N : 0.656

For Cc1ccccc1C [1,2-dimethylbenzene] + CCCC[n+]1ccc(C)cc1.N#CC(=C=[N-])C#N the compound record lists activity coefficient as 1.56

The recorded activity coefficient for entry CCCCCCCCCC [decane] + CCCC[n+]1ccc(C)cc1.N#CC(=C=[N-])C#N equals 72.6

---

experiment: activity coefficient (dimensionless); of the first substance listed, at infinite dilution; xn = mol fraction of the nth substance listed; conditions: 368.15 K; 101 kPa; Liquid; Chromatography; x1 = 0
measurement.kind: activity coefficient

C=CCCCC [hex-1-ene] + CCCC[n+]1ccc(C)cc1.N#CC(=C=[N-])C#N; 8.75
CC(C)O [propan-2-ol] + CCCC[n+]1ccc(C)cc1.N#CC(=C=[N-])C#N; 0.928
CC#N [acetonitrile] + CCCC[n+]1ccc(C)cc1.N#CC(=C=[N-])C#N; 0.613
C=CCCCCCC [oct-1-ene] + CCCC[n+]1ccc(C)cc1.N#CC(=C=[N-])C#N; 17.8
CCc1ccccc1 [ethylbenzene] + CCCC[n+]1ccc(C)cc1.N#CC(=C=[N-])C#N; 2.01

Form: molecule = CO [methanol] + CCCC[n+]1ccc(C)cc1.N#CC(=C=[N-])C#N ; activity coefficient = 0.58

The value of activity coefficient measured for the molecule CCCCCCC [heptane] + CCCC[n+]1ccc(C)cc1.N#CC(=C=[N-])C#N turned out to be 24.7

Lookup result for Cc1cccc(C)c1 [1,3-dimethylbenzene] + CCCC[n+]1ccc(C)cc1.N#CC(=C=[N-])C#N ; measured activity coefficient: 1.94

response.value for Cc1ccccc1 [toluene] + CCCC[n+]1ccc(C)cc1.N#CC(=C=[N-])C#N (field: activity coefficient) = 1.4

activity coefficient for C1CCCCCC1 [cycloheptane] + CCCC[n+]1ccc(C)cc1.N#CC(=C=[N-])C#N is 10.3

Entry CCC(=O)CC [pentan-3-one] + CCCC[n+]1ccc(C)cc1.N#CC(=C=[N-])C#N — recorded activity coefficient = 1.11

# activity coefficient of CCC[N+](=O)[O-] [1-nitropropane] + CCCC[n+]1ccc(C)cc1.N#CC(=C=[N-])C#N = 0.792
